Sourced from paper PMC12062780

# assayed-system: FGFR1 (Homo sapiens, UniProt P11362, C488A/C584S)
# Construct: made in house; host or cells: E. coli
# Sequence (P11362 with tags, fused parts or gaps C488A/C584S): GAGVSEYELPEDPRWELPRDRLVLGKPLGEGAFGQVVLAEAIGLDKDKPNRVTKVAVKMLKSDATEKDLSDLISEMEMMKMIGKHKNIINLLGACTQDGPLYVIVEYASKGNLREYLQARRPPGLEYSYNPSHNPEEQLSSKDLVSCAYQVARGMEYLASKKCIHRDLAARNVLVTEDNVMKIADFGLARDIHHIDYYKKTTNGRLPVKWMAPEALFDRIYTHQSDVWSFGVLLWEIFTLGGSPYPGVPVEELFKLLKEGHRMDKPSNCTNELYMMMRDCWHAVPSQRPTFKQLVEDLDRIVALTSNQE
# test: ESI-CIU-IMS-MS collision-induced unfolding of FGFR1 after incubation with inhibitor
# applied-conditions: 21 V Trap, 11+ FGFR1 ions
# Description: FGFR1 (2 μM) and inhibitors (8 μM) were incubated separately in ammonium acetate (100 mM) for 1 h at room temperature prior to analysis. […] Samples were analysed by nano‐ESI from in‐house fabricated gold–palladium‐coated borosilicate capillaries assembled using a P‐97 micropipette puller (Sutter Instrument Co., Novato, CA, USA) and a sputter coater (Polaron SC7620; Quorum Technologies Ltd, Kent, UK). […]
# if value of Intensity vs base peak (5.5 ms) of the unfolded conformer at ca 7.6 ms reaches 30%, tag y; if it stays below, tag n

smiles-input: CN1CCN(c2ccc(NC(=O)c3n[nH]c4ccccc34)cc2)CC1
assigned-category: n
//
smiles-input: Cc1ccc(F)c(NC(=O)Nc2ccc(-c3cccc4[nH]nc(N)c34)cc2)c1
assigned-category: y
//
smiles-input: CCCc1cc(Nc2nc(NCc3ccccn3)ncc2Br)n[nH]1
assigned-category: n
//
smiles-input: Cc1cc(Nc2nc(NCCc3cccnc3)ncc2Br)n[nH]1
assigned-category: n
//
smiles-input: CNC(=O)c1ccccc1Nc1cc(Nc2cn(C)nc2C)ncc1C(F)(F)F
assigned-category: n

Ask: Say whether Cc1ccc(C(=O)Nc2ccc(CN3CCN(C)CC3)c(C(F)(F)F)c2)cc1C#Cc1cnc2cccnn12 shows Intensity vs base peak (5.5 ms) of the unfolded conformer at ca 7.6 ms of 30% or more.
Result: y
